// pIC50 lookup, one value per entry
biological target: Neuronal acetylcholine receptor; alpha6/beta2 (Homo sapiens, UniProt P17787+Q15825); assay: Inhibition of alpha6beta2 nAChR; format: protein-complex assay
Sequence (Q15825 whole entry, one chain of several): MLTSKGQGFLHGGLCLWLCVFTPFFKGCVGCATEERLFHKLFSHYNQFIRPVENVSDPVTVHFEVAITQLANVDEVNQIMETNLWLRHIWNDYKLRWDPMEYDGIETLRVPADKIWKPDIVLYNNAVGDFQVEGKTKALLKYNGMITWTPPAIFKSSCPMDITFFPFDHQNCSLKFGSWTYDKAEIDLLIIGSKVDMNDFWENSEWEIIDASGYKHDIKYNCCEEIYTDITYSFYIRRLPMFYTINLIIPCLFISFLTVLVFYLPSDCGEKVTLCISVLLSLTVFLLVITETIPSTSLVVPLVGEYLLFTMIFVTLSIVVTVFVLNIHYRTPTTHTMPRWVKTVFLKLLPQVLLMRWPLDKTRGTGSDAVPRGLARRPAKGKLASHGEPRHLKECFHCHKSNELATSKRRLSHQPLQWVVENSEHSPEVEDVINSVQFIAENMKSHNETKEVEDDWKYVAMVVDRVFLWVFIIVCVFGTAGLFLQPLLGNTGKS
pIC50: −log10 of the molar value. Residues, ends and D or L forms follow the SMILES beside them.
test-readout: pIC50

compound	assayed-target	measured
CC[C@H](C)[C@H](NC(=O)[C@H](CCC(N)=O)NC(=O)[C@@H]1CCCN1C(=O)[C@H](CC(N)=O)NC(=O)[C@H](Cc1cnc[nH]1)NC(=O)[C@@H](NC(=O)[C@@H](NC(=O)[C@H](CS)NC(=O)[C@@H](NC(=O)[C@@H]1CCCN1C(=O)[C@H](CC(N)=O)NC(=O)[C@H](CO)NC(=O)[C@H](CS)NC(=O)[C@H](CS)NC(=O)[C@@H]1CCCN1C(=O)[C@H](CC(=O)O)NC(=O)[C@@H](N)CCCNC(=N)N)C(C)C)[C@@H](C)O)C(C)C)C(=O)N[C@@H](CS)C(=O)O (H-RDPCCSNPVCTVHNPQIC-OH)	Neuronal acetylcholine receptor; alpha6/beta2 (Homo sapiens, UniProt P17787+Q15825)	9.02
CC(C)C[C@H](NC(=O)[C@H](CC(N)=O)NC(=O)[C@H](CO)NC(=O)[C@H](Cc1cnc[nH]1)NC(=O)[C@H](CCC(=O)O)NC(=O)[C@H](CC(C)C)NC(=O)[C@H](Cc1cnc[nH]1)NC(=O)[C@H](CS)NC(=O)[C@@H](NC(=O)[C@@H]1CCCN1C(=O)[C@H](CC(N)=O)NC(=O)[C@H](CO)NC(=O)[C@H](CS)NC(=O)[C@H](CS)NC(=O)CN)C(C)C)C(=O)N[C@@H](CS)C(=O)O	Neuronal acetylcholine receptor; alpha6/beta2 (Homo sapiens, UniProt P17787+Q15825)	9.41
CC(C)C[C@H](NC(=O)[C@H](Cc1cnc[nH]1)NC(=O)[C@H](CS)NC(=O)[C@@H](NC(=O)[C@@H]1CCCN1C(=O)[C@H](CC(N)=O)NC(=O)[C@H](CO)NC(=O)[C@H](CS)NC(=O)[C@H](CS)NC(=O)CN)C(C)C)C(=O)N[C@@H](C)C(=O)N[C@@H](Cc1cnc[nH]1)C(=O)N[C@@H](CO)C(=O)N[C@@H](CC(N)=O)C(=O)N[C@@H](CC(C)C)C(=O)N[C@@H](CS)C(=O)O (H-GCCSNPVCHLAHSNLC-OH)	Neuronal acetylcholine receptor; alpha6/beta2 (Homo sapiens, UniProt P17787+Q15825)	9.80
CC[C@H](C)[C@H](NC(=O)[C@H](Cc1cnc[nH]1)NC(=O)[C@H](CCC(N)=O)NC(=O)[C@H](CC(N)=O)NC(=O)[C@H](CC(N)=O)NC(=O)CNC(=O)[C@H](C)NC(=O)[C@H](CS)NC(=O)[C@H](C)NC(=O)[C@@H]1CCCN1C(=O)[C@H](Cc1cnc[nH]1)NC(=O)[C@H](CO)NC(=O)[C@H](CS)NC(=O)[C@H](CS)NC(=O)CN)C(=O)N[C@@H](CS)C(=O)O	Neuronal acetylcholine receptor; alpha6/beta2 (Homo sapiens, UniProt P17787+Q15825)	8.52

###

biological target: Neuronal acetylcholine receptor; alpha3/beta2 (Homo sapiens, UniProt P17787+P32297); assay: Inhibition of alpha3beta2 nAChR
Sequence (P17787 whole entry): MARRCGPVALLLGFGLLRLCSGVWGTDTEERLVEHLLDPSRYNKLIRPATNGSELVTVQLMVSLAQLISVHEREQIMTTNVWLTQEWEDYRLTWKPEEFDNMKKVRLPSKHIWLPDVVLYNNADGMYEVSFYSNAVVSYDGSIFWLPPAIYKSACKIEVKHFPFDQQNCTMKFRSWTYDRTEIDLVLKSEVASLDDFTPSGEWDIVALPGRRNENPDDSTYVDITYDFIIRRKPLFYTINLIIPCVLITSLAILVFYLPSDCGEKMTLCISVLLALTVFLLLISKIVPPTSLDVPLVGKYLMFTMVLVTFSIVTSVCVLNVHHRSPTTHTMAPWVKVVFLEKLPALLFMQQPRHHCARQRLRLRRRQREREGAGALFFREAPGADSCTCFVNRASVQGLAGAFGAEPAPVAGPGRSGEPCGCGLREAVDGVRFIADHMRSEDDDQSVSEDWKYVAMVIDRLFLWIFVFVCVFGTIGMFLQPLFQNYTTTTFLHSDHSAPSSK
Sequence (P32297 whole entry): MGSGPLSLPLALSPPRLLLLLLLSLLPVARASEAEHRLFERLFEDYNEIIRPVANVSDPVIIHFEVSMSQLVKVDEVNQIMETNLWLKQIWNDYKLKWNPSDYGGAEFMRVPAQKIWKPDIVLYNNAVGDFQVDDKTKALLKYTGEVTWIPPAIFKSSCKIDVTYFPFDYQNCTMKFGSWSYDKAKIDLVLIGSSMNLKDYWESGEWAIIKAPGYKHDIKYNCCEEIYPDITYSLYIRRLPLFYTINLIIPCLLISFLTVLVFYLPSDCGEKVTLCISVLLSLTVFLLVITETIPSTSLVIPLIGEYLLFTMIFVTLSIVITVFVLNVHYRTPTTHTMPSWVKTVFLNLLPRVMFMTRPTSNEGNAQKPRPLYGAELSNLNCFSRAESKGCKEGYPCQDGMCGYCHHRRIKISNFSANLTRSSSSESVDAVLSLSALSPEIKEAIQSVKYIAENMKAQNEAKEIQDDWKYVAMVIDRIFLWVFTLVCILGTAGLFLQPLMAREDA
pIC50: −log10 of the molar value. Residues, ends and D or L forms follow the SMILES beside them.
test-readout: pIC50

compound	measured
CC(C)C[C@H](NC(=O)[C@H](Cc1cnc[nH]1)NC(=O)[C@H](CS)NC(=O)[C@@H](NC(=O)[C@@H]1CCCN1C(=O)[C@H](CC(N)=O)NC(=O)[C@H](CO)NC(=O)[C@H](CS)NC(=O)[C@H](CS)NC(=O)CN)C(C)C)C(=O)N[C@@H](C)C(=O)N[C@@H](Cc1cnc[nH]1)C(=O)N[C@@H](CO)C(=O)N[C@@H](CC(N)=O)C(=O)N[C@@H](CC(C)C)C(=O)N[C@@H](CS)C(=O)O (H-GCCSNPVCHLAHSNLC-OH)	8.06
CC(C)C[C@H](NC(=O)[C@H](CC(N)=O)NC(=O)[C@H](CO)NC(=O)[C@H](Cc1cnc[nH]1)NC(=O)[C@H](CCC(=O)O)NC(=O)[C@H](CC(C)C)NC(=O)[C@H](Cc1cnc[nH]1)NC(=O)[C@H](CS)NC(=O)[C@@H](NC(=O)[C@@H]1CCCN1C(=O)[C@H](CC(N)=O)NC(=O)[C@H](CO)NC(=O)[C@H](CS)NC(=O)[C@H](CS)NC(=O)CN)C(C)C)C(=O)N[C@@H](CS)C(=O)O	9.30
CC[C@H](C)[C@H](NC(=O)[C@H](CCC(N)=O)NC(=O)[C@@H]1CCCN1C(=O)[C@H](CC(N)=O)NC(=O)[C@H](Cc1cnc[nH]1)NC(=O)[C@@H](NC(=O)[C@@H](NC(=O)[C@H](CS)NC(=O)[C@@H](NC(=O)[C@@H]1CCCN1C(=O)[C@H](CC(N)=O)NC(=O)[C@H](CO)NC(=O)[C@H](CS)NC(=O)[C@H](CS)NC(=O)[C@@H]1CCCN1C(=O)[C@H](CC(=O)O)NC(=O)[C@@H](N)CCCNC(=N)N)C(C)C)[C@@H](C)O)C(C)C)C(=O)N[C@@H](CS)C(=O)O (H-RDPCCSNPVCTVHNPQIC-OH)	7.13
CC[C@H](C)[C@H](NC(=O)[C@H](Cc1cnc[nH]1)NC(=O)[C@H](CCC(N)=O)NC(=O)[C@H](CC(N)=O)NC(=O)[C@H](CC(N)=O)NC(=O)CNC(=O)[C@H](C)NC(=O)[C@H](CS)NC(=O)[C@H](C)NC(=O)[C@@H]1CCCN1C(=O)[C@H](Cc1cnc[nH]1)NC(=O)[C@H](CO)NC(=O)[C@H](CS)NC(=O)[C@H](CS)NC(=O)CN)C(=O)N[C@@H](CS)C(=O)O	8.96
